MCF7 Viability Assay: % Viability relative to Fulvestrant: recorded values
test system: MCF-7 cells; assay: Breast Cancer Cell Viability Assay (MCF7, CellTiter-Glo); conditions: 5 days, 100-{100*[(100-% viability of Example)/(100-% viability of Fulvestrant)]}
Assay endpoint: MCF7 Viability Assay: % Viability relative to Fulvestrant (%)

1. CC1=C(c2ccc(F)cc2)C(c2ccc(OCCN3CC(CF)C3)cc2)Oc2ccc(O)cc21 (stereo not shown)    3
2. CC1=C(c2ccc(F)cc2)C(c2ccc(OC[C@H](C)N3CC[C@@H](C)C3)cc2)Oc2ccc(O)cc21 (stereo partly shown) [reference compound]    17
3. CC1=C(c2ccc(Cl)cc2)C(c2ccc(OC[C@H](C)N3CC[C@@H](C)C3)cc2)Oc2ccc(O)cc21 (stereo partly shown) [reference compound]    14
4. CC1=C(c2ccc(C#N)cc2)C(c2ccc(OC[C@H](C)N3CC[C@@H](C)C3)cc2)Oc2ccc(O)cc21 (stereo partly shown) [reference compound]    15

====

system: MCF-7 cells; assay: Breast Cancer Cell Viability Assay (MCF7, CellTiter-Glo); conditions: 5 days, 100-{100*[(100-% viability of Example)/(100-% viability of Fulvestrant)]};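 note: CellTiter-Glo luminescence read-out, background from cell-free medium subtracted, viability expressed against untreated cells, ten-point 1:5 compound dilution series spanning 10 to 0.000005 µM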
Assay endpoint: MCF7 Viability Assay: % Viability relative to Fulvestrant

1) CC1=C(c2ccc(Cl)c(F)c2)C(c2ccc(OCCN3CC(CF)C3)cc2)Oc2ccc(O)cc21 (stereo not drawn)    1%
2) CC1=C(c2cccc(O)c2)[C@H](c2ccc(OC[C@H](C)N3CC[C@@H](C)C3)cc2)Oc2ccc(O)cc21 [reference compound]    8%
3) CC1=C(c2ccc(C#N)cc2)C(c2ccc(OCCN3CC(CF)C3)cc2)Oc2ccc(O)cc21 (stereo not drawn)    0%
4) CC1=C(c2ccc(F)cc2)C(c2ccc(OCCN3CC(CF)C3)cc2)Oc2cc(O)ccc21 (stereo not drawn)    7%
5) CC1=C(c2ccc(F)c(F)c2)C(c2ccc(OC[C@H](C)N3CC[C@@H](C)C3)cc2)Oc2ccc(O)cc21 (stereo partly drawn) [reference compound]    19%
6) CC1=C(c2ccc(Cl)cc2)C(c2ccc(OCCN3CC(CF)C3)cc2)Oc2ccc(O)cc21 (stereo not drawn)    3%
7) CC1=C(c2ccc(F)cc2)[C@@H](c2ccc(OCCN3CC(CF)C3)cc2)Oc2ccc(O)cc21 (single isomer, unassigned)    3%
8) CC1=C(c2cc(F)c(F)c(F)c2)C(c2ccc(OCCN3CC(CF)C3)cc2)Oc2ccc(O)cc21 (stereo not drawn)    0%
9) CC1=C(c2ccc(C(F)(F)F)cc2)C(c2ccc(OCCN3CC(CF)C3)cc2)Oc2ccc(O)cc21 (stereo not drawn)    6%
10) CC1=C(c2cccc(O)c2)C(c2ccc(OCCN3CC(C)C3)cc2)Oc2ccc(O)cc21 (stereo not drawn)    13%
11) CC1=C(c2ccc(F)c(Cl)c2)C(c2ccc(OCCN3CC(CF)C3)cc2)Oc2ccc(O)cc21 (stereo not drawn)    1%
12) CC1=C(c2ccc(Cl)cc2)C(c2ccc(OCCN3CC(CF)C3)cc2)Oc2cc(O)ccc21 (stereo not drawn)    6%
13) CC1=C(c2ccc(F)c(F)c2)C(c2ccc(OCCN3CC(CF)C3)cc2)Oc2ccc(O)cc21 (stereo not drawn)    2%
14) CC1=C(c2ccc(F)cc2)[C@H](c2ccc(OCCN3CC(CF)C3)cc2)Oc2ccc(O)cc21 (single isomer, unassigned)    8%
15) CC1=C(c2ccc(F)cc2)[C@H](c2ccc(OC[C@H](C)N3CC[C@@H](C)C3)cc2)Oc2ccc(O)cc21 [reference compound]    14%

====

molecular target: ER-α (Homo sapiens); construct: endogenous in cells; host or cells: MCF7; test: Breast Cancer Cell ER-α In-Cell Western Assay (SP1); assay type: cell-based; conditions: MCF7 cells, 4 hours; 100-{100*[(100-% ER level of Example)/(100-% ER level of Fulvestrant)]}
Sequence (P03372 whole entry): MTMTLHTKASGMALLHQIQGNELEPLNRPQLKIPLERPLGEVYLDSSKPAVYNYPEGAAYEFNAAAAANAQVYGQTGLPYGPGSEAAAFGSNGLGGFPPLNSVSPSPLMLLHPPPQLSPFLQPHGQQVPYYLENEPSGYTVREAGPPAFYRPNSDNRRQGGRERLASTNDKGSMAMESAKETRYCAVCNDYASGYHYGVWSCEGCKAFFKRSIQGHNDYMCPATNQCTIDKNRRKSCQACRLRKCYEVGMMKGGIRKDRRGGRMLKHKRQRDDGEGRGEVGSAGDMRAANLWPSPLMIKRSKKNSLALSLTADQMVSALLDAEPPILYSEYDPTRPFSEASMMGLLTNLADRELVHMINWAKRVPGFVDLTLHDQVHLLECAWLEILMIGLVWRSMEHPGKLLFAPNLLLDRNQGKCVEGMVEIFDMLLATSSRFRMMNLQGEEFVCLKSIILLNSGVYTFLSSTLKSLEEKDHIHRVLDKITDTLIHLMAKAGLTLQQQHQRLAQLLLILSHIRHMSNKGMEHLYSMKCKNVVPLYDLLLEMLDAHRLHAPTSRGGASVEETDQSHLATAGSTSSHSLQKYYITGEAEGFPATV
Assay endpoint: ER-α In-Cell Western Assay (SP1): % ER-α remaining relative to Fulvestrant

1. CC1=C(c2cccc(O)c2)C(c2ccc(OCCN3CC(C)C3)cc2)Oc2ccc(O)cc21 (stereo not drawn) [Example 31]    14%
2. CC1=C(c2ccc(F)c(F)c2)C(c2ccc(OCCN3CC(CF)C3)cc2)Oc2ccc(O)cc21 (stereo not drawn) [Example 10]    1%
3. CC1=C(c2ccc(C#N)cc2)C(c2ccc(OCCN3CC(CF)C3)cc2)Oc2ccc(O)cc21 (stereo not drawn) [Example 7]    2%
